# Experimental system: T1, human PD-L1-Fc protein (human, UniProt Q9NZQ7 19-238)
# T1 construct: coating antigen of the ELISAs; also called rhPD-L1-Fc; not shown: Fc
# T1 sequence (Q9NZQ7 19-238 limits assumed): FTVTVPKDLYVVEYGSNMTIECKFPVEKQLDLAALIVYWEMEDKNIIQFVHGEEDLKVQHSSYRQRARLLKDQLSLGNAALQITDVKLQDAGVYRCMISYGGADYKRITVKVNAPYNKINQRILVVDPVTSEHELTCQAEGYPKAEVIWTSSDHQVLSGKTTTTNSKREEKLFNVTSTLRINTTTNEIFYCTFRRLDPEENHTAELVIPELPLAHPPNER
# Assay text: ELISA, antibody titrated on coated human PD-L1-Fc, OD 450nm; lower left panel
Property label: EC50 (ng/mL)
Reply with just the number (in ng/mL).

Q. What does the data say about its EC50? Entry: Hu89C10H8-15 (antibody, V domains shown, humanized) VH: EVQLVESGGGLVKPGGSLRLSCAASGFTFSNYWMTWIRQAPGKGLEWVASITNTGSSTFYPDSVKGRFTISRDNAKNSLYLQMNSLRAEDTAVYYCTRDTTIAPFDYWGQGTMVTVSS VL: DIQMTQSPSSLSASVGDRVTITCKASQNLNEYLNWYQQKLGEAPKRLIYKTNTLQAGIPSRFSGSGSGIDYTLTISSLQPEDFATYFCSQYNSGNTFGQGTKLEIK
A. 8.8

Q. Quick check: EC50 of Hu47C6A3-3 (antibody, V domains shown, humanized) VH: QVQLQESGPGLVKPSETLSLTCTVSGYSITSDYAWNWIRQPPGKGLEWMGYIIYSGSTSYNPSLKSRITISRDTSKNQFSLKLSSVTAADTAVYYCARSTMIATNWFAYWGQGTLVTVSS VL: DIQMTQSPSSLSASVGDRVTITCKASQDVSLAVAWYQQKPGKAPKLLIYWASTRHTGVPSRFSGSGSGTDFTLTISSLQPEDFATYYCQQHYITPWTFGGGTKVEIK ?
A. 15

Q. Can you look up the measured EC50 of Hu89C10H8-13 (antibody, V domains shown, humanized) VH: EVQLVESGGGLVKPGGSLRLSCAASGFTFSNYWMTWVRQAPGKGLEWVASITNTGSSTFYPDSVKGRFTISRDNAKNSLYLQMNSLRAEDTAVYYCARDTTIAPFDYWGQGTMVTVSS VL: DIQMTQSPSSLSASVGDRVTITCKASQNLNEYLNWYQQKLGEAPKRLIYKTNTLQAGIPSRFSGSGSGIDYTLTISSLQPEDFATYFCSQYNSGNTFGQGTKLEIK for me?
A. 9.94
